# assay_info: Equilibrium solubility of the compound at pH 7.4
# Type: physicochemical
# measurement_setup: buffer
recorded_metric: solubility thermodynamic (µg/mL)
Lab book: enter the figure in µg/mL, no units written.

QUERY: Which solubility thermodynamic value is on record for Cc1ccc(F)cc1C(C)(C)C[C@@](O)(Cc1cc2cnccc2[nH]1)C(C)(C)C ?
RESULT: 15

----------
These records show pIC50 for Glucocorticoid receptor (Homo sapiens).
Friendly reminder that pIC50 comes from taking -log10 of the concentration in mol/L.

QUERY: GET /values?readout=pIC50&system=Glucocorticoid receptor (Homo sapiens)&item= COc1ccc(F)cc1C(C)(C)CC(O)(Cc1cc2ccncc2[nH]1)C(F)(F)F (stereo not given)
RESULT: 8.40

QUERY: Write down the reported pIC50 of COc1ccc(F)cc1C(C)(C)CC(O)(Cc1cc2ccncc2[nH]1)C1CCCC1 (single isomer, unassigned) , test system: Glucocorticoid receptor (Homo sapiens).
Sequence (P04150 whole entry): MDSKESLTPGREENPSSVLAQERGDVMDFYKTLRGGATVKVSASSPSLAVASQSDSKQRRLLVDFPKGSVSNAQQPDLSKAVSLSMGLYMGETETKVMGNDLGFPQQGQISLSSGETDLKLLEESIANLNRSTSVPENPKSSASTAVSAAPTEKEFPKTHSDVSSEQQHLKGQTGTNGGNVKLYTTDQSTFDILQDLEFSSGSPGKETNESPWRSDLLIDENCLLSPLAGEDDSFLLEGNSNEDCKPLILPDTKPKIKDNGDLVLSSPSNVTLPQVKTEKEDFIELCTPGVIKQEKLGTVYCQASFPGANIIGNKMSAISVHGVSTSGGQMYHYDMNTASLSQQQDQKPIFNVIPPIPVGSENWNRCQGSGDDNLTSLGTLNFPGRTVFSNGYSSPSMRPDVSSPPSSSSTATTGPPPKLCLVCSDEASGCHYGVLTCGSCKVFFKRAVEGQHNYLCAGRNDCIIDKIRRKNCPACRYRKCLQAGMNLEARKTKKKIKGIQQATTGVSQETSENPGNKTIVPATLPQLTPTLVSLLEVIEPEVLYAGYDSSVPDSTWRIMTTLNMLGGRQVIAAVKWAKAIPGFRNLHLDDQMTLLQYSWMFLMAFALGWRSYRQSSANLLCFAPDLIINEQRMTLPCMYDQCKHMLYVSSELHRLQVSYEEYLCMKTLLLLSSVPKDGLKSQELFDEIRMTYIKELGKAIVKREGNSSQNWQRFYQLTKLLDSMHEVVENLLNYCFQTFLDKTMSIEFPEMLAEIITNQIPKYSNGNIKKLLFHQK
RESULT: 7.59

QUERY: Notebook: pull reported pIC50 for Glucocorticoid receptor (Homo sapiens), entry COc1ccc(F)cc1C(C)(C)CC(O)(Cc1cc2ccncc2[nH]1)C1CCC1 (stereo not given)
RESULT: 7.77

QUERY: Record lookup: for Glucocorticoid receptor (Homo sapiens), what pIC50 belongs to CCC(O)(Cc1cc2ccncc2[nH]1)CC(C)(C)c1cc(F)ccc1OC (stereo not given) ?
RESULT: 7.29

QUERY: Query for Glucocorticoid receptor (Homo sapiens): what pIC50 does the record show for Cc1ccc(F)cc1C(C)(C)CC(O)(Cc1cc2cnccc2[nH]1)C1CC1 (stereo not given) ?
RESULT: 8.05

QUERY: Find pIC50 (Glucocorticoid receptor (Homo sapiens)) for the entry COc1ccc(F)cc1C(C)(C)CC(O)(Cc1cc2cnccc2[nH]1)C(C)(C)C (stereo not given)
RESULT: 8.40

QUERY: What value of pIC50 on Glucocorticoid receptor (Homo sapiens) does COc1ccc(F)cc1C(C)(C)CC(O)(Cc1cc2ccncc2[nH]1)C(C)C (stereo not given) have?
RESULT: 8.05

QUERY: Request: pIC50, test system Glucocorticoid receptor (Homo sapiens), entry Cc1ccc(F)cc1C(C)(C)C[C@](O)(Cc1cc2cnccc2[nH]1)C(C)(C)C
RESULT: 5.89

QUERY: Query pIC50 on Glucocorticoid receptor (Homo sapiens) for COc1ccc(F)cc1C(C)(C)CC(O)(Cc1cc2ccncc2[nH]1)C1CC1 (stereo not given)
RESULT: 7.82

QUERY: Param readout= pIC50; system= Glucocorticoid receptor (Homo sapiens); entry= COc1ccc(F)cc1C(C)(C)CC(C)(O)Cc1cc2ccncc2[nH]1 (stereo not given) ; returns value.
RESULT: 6.64

QUERY: What value of pIC50 on Glucocorticoid receptor (Homo sapiens) does Cc1ccc(F)cc1C(C)(C)CC(O)(Cc1cc2cnccc2[nH]1)C(C)(C)C (racemic) have?
RESULT: 8.30

QUERY: Give the reported pIC50 for Cc1ccc(F)cc1C(C)(C)C[C@@](O)(Cc1cc2cnccc2[nH]1)C(C)(C)C (system: Glucocorticoid receptor (Homo sapiens)).
RESULT: 8.70

QUERY: I'm curious: which pIC50 was measured for COc1ccc(F)cc1C(C)(C)CC(O)(Cc1cc2cnccc2[nH]1)C1CC1 (stereo not given) tested on Glucocorticoid receptor (Homo sapiens)?
RESULT: 8.22

QUERY: Any idea what pIC50 came out for CCC(C)(C)C(O)(Cc1cc2ccncc2[nH]1)CC(C)(C)c1cc(F)ccc1OC (stereo not given) on Glucocorticoid receptor (Homo sapiens)?
RESULT: 7.89

QUERY: Requested read-out pIC50, target or system Glucocorticoid receptor (Homo sapiens), entry COc1ccc(F)cc1C(C)(C)CC(O)(Cc1cc2ccncc2[nH]1)C(C)(C)C (stereo not given)
RESULT: 8.10
